Listed here: items and their measured inhibition.
experimental system: Disintegrin and metalloproteinase domain-containing protein 10 (Homo sapiens) (UniProt O14672)
Sequence (O14672 214-748 limits assumed): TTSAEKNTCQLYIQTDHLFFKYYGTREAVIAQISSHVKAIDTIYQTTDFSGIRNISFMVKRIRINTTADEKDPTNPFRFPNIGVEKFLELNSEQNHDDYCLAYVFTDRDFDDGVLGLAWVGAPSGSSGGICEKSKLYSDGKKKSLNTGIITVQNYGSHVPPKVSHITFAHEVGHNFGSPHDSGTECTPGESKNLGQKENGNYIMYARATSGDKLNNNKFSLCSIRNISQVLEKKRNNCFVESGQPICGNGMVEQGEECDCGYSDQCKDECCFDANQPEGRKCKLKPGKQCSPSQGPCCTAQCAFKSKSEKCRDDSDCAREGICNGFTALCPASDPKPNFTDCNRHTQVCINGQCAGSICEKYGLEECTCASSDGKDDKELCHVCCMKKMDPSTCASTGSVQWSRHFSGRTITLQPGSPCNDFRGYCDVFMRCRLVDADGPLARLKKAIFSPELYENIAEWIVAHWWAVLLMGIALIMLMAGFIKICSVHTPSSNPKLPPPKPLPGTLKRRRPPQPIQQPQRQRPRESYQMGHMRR
test protocol: blockers of ADAM10 peptide cleavage – biochemical, QFRET, HTS, primary screen (AID 720582);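 note: 0% = DMSO wells while the 100% control is not disclosed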
condition notes: recombinant ADAM10, EDANS/DABCYL FRET peptide cleavage, 3 h; at 7 µM; active compounds read high
Out of some 370,000 compounds screened, about 2,300 (0.62%) were called active. The list comes from a sample in which actives are over-represented; it also holds close analogues and randomly drawn compounds.
Numeric only. Scale: %

Would you please look over these solved cases?
# entry smiles, inhibition, %
records = [
    ("Cc1ccccc1-n1c(SCC(=O)Nc2cccc3ccccc23)nc(O)cc1=O", 27),
    ("C[C@@H]1ON(C)[C@H]2C[C@H]3c4[nH]c5cccc(-c6ccc7c(c6)OCO7)c5c4CCN3C[C@@H]12", -72.8),
    ("COc1ccc(/C=C/C(=O)OCC(=O)N2CCN(S(=O)(=O)c3ccc(C)cc3C)CC2)cc1OC", -21.9),
    ("C=CCn1c(N)cc(=O)nc1SCC(=O)Nc1cccc2ccccc12", -27),
]

Please look at the following molecule next.
// inhibition lookup, molecule = COC(=O)[C@H](C(C)C)N1CCc2nnn(Cc3ccc(C)cc3)c2-c2ccccc2S1(=O)=O , result: 5.83

###

experimental system: Disintegrin and metalloproteinase domain-containing protein 10 (Homo sapiens)
test protocol: blockers of ADAM10 peptide cleavage – biochemical, QFRET, HTS, primary screen (AID 720582);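 note: 0% = DMSO wells while the 100% control is not disclosed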
condition notes: recombinant ADAM10, EDANS/DABCYL FRET peptide cleavage, 3 h; at 7 µM
The campaign covered roughly 370,000 compounds. About 2,300 (0.62%) were called active.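 The calls were made as follows: active = inhibition above a per-campaign cutoff equal to the mean of compounds falling between control-based bounds plus 3 SD (cut at about 20% in these data); inactive = the rest.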 Only a selection was taken, and actives are over-represented in it overall.
Write down the outcome that applies. Available outcomes: active, inactive

Completed entries (count: 2):
# compound, experimental system, cat
records = [
    ("COc1ccc(OCCCn2cccc2/C=C2/C(=N)N3OC(C)=CC3=NC2=O)cc1", "Disintegrin and metalloproteinase domain-containing protein 10 (Homo sapiens)", "active"),
    ("COC(=O)[C@@]12CCCCC=C1N(CCc1ccc(Cl)cc1)C(=O)[C@H]2CC(=O)NCc1ccc(OC)c(OC)c1", "Disintegrin and metalloproteinase domain-containing protein 10 (Homo sapiens)", "inactive"),
]

Input: Outcome? CN(C)S(=O)(=O)c1cccc(NC(=O)COC(=O)C2(c3ccccc3F)CCCC2)c1
Output: active

Input: Outcome? COc1ccc(C2Nc3ccccc3C(=O)N2Cc2cccs2)cc1COc1c(C)cccc1C (stereo not given)
Output: inactive

###

experimental system: Disintegrin and metalloproteinase domain-containing protein 10 (Homo sapiens) (UniProt O14672)
test protocol: blockers of ADAM10 peptide cleavage – biochemical, QFRET, HTS, primary screen (AID 720582);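 note: 0% = DMSO wells while the 100% control is not disclosed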
condition notes: recombinant ADAM10, EDANS/DABCYL FRET peptide cleavage, 3 h; at 7 µM
Out of some 370,000 compounds screened, about 2,300 (0.62%) were called active.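 Rule for the calls: active = inhibition above a per-campaign cutoff equal to the mean of compounds falling between control-based bounds plus 3 SD (cut at about 20% in these data); inactive = the rest.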 This excerpt belongs to a sample that is enriched for actives.
Write down the outcome that applies. Available outcomes: active, inactive

# compound, cat
rows = [
    ("COC(=O)c1cc(S(=O)(=O)N2CCN(C(=O)C3CCCO3)CC2)cn1C (stereo not given)", "inactive"),
    ("O=S1(=O)c2ccc(Br)cc2OC[C@H](Cc2ccccc2)N1Cc1cn(Cc2ccccc2)nn1", "inactive"),
    ("CC(=O)Nc1ccc(C(=O)Nc2cccc(S(=O)(=O)NC3=NCCC3)c2)cc1", "inactive"),
    ("O=C(NNC(=O)c1cccc(S(=O)(=O)Nc2ccc(Cl)cc2)c1)c1ccc(=O)[nH]c1", "inactive"),
    ("CCOC(=O)c1cccc(NC(=O)CN(C)S(=O)(=O)c2ccc(-c3cocn3)s2)c1", "inactive"),
    ("COc1ccc(C(C(=O)NC2CCCCC2)N(C(=O)CCl)c2ccccc2Cl)cc1 (stereo not given)", "inactive"),
    ("O=C(Nc1cccc(S(=O)(=O)Nc2ccc(Cl)cc2)c1)c1ccc2c(c1)OCCO2", "active"),
    ("O=C1c2ccccc2C(=O)N1CCOc1ccc(F)cc1", "inactive"),
    ("C=CCn1c(SCC(N)=O)nnc1-c1ccccc1OC", "inactive"),
]

Input: Outcome? O=C(CSc1nc2ccccc2n1Cc1ccccc1)NNC(=S)Nc1ccccc1
Output: inactive
